Reference for the values: patent US9353149B2

- protocolDescription: Plasma pharmacokinetics after single intravenous and oral administration
- Format: in vivo, male Swiss Albino mice
- recordedConditions: male, Swiss Albino, mouse, iv, 1 mg/kg
Residues, ends and D or L forms follow the SMILES beside them.
propertyName: clearance

• CC(=O)N[C@@H](CO)C(=O)N[C@@H](CCCCN)C(=O)N[C@@H](CC(C)C)C(N)=O [Compound 1] (Ac-Ser-Lys-Leu-NH2) = 12.1 mL/min/kg

* * *

- protocolDescription: Plasma pharmacokinetics after single intravenous and oral administration
- Format: in vivo, male Swiss Albino mice
- recordedConditions: male, Swiss Albino, mouse, po, 3 mg/kg
Residues, ends and D or L forms follow the SMILES beside them.
propertyName: Tmax (min)

• CC(=O)N[C@@H](CO)C(=O)N[C@@H](CCCCN)C(=O)N[C@@H](CC(C)C)C(N)=O [Compound 1] (Ac-Ser-Lys-Leu-NH2) = 30

* * *

- protocolDescription: Plasma pharmacokinetics after single intravenous and oral administration
- Type: in vivo, male Swiss Albino mice
- recordedConditions: male, Swiss Albino, mouse, po, 3 mg/kg
Residues, ends and D or L forms follow the SMILES beside them.
propertyName: Cmax

• CC(=O)N[C@@H](CO)C(=O)N[C@@H](CCCCN)C(=O)N[C@@H](CC(C)C)C(N)=O [Compound 1] (Ac-Ser-Lys-Leu-NH2) = 208 ng/mL

* * *

- protocolDescription: Plasma pharmacokinetics after single intravenous and oral administration
- Format: in vivo, male Swiss Albino mice
- recordedConditions: male, Swiss Albino, mouse, iv, 1 mg/kg
Residues, ends and D or L forms follow the SMILES beside them.
propertyName: AUC(0-inf)

• CC(=O)N[C@@H](CO)C(=O)N[C@@H](CCCCN)C(=O)N[C@@H](CC(C)C)C(N)=O [Compound 1] (Ac-Ser-Lys-Leu-NH2) = 1380 ng·h/mL

* * *

- protocolDescription: Plasma pharmacokinetics after single intravenous and oral administration
- Type: in vivo, male Swiss Albino mice
- recordedConditions: male, Swiss Albino, mouse, po, 3 mg/kg
Residues, ends and D or L forms follow the SMILES beside them.
propertyName: AUC(0-inf)

* CC(=O)N[C@@H](CO)C(=O)N[C@@H](CCCCN)C(=O)N[C@@H](CC(C)C)C(N)=O [Compound 1] (Ac-Ser-Lys-Leu-NH2) | 1070 ng·h/mL

* * *

- targetOrTestSystem: Recombinant latent TGF-beta incubated with TSP1 (Homo sapiens)
- Sequence (P07996 19-1170): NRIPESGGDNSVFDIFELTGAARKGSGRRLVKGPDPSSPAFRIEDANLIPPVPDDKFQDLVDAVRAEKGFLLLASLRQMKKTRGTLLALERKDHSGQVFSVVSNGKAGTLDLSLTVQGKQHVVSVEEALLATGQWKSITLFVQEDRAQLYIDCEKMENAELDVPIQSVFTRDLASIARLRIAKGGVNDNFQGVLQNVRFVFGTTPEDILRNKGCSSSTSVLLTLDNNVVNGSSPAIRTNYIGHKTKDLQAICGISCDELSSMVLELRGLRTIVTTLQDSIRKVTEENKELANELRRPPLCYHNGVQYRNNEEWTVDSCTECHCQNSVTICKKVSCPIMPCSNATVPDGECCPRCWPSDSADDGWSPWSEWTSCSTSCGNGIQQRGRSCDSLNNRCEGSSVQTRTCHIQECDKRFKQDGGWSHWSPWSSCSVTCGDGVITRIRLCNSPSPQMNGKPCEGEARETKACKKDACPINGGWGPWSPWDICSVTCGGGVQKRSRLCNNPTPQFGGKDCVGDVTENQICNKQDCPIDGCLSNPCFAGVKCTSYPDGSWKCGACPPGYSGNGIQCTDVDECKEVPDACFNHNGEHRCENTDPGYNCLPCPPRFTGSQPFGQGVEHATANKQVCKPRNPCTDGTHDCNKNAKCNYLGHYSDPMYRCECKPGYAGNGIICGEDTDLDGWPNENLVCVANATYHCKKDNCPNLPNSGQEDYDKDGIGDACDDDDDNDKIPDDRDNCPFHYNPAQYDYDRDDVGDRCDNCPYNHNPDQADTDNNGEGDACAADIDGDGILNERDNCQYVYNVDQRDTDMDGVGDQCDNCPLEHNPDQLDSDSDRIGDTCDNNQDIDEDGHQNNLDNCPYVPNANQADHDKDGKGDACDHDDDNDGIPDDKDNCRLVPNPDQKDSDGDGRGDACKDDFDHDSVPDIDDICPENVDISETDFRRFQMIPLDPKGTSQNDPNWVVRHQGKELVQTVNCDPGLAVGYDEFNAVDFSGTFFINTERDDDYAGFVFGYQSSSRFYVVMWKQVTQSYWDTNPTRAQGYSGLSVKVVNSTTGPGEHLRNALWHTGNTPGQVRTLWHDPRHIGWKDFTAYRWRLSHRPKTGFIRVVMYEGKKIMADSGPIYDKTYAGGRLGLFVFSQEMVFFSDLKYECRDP
- protocolDescription: TSP1 activation of recombinant latent TGF-beta, ELISA specific for active TGF-beta
- recordedConditions: latent TGF-beta 500 pM, TSP1 48 nM, compounds 1-100 pM; read-out: Activity (IC 50)
pIC50: −log10 of the molar value. Residues, ends and D or L forms follow the SMILES beside them.
propertyName: pIC50

* CC(=O)N[C@H](CO)C(=O)N[C@@H](CCCCN)C(=O)N[C@@H](CC(C)C)C(N)=O [Compound 94] (HELM PEPTIDE1{[ac].[dS].K.L.[am]}$$$$V2.0) | 9.30 to 10.00
* COC[C@H](NC(C)=O)C(=O)N[C@@H](CCCCN)C(=O)N[C@@H](CC(C)C)C(N)=O [Compound 100] (Ac-Ser(Me)-Lys-Leu-NH2) | 9.30 to 10.00
* CC(=O)N[C@@H](CO)C(=O)N[C@@H](CCCCN(C)C)C(=O)N[C@@H](CC(C)C)C(N)=O [Compound 22] (HELM PEPTIDE1{[ac].S.[CN(C)CCCC[C@H](N[*:1])C(=O)[*:2]].L.[am]}$$$$V2.0) | 9.30 to 10.00
* CNCCCC[C@H](NC(=O)[C@H](CO)NC(C)=O)C(=O)N[C@@H](CC(C)C)C(N)=O [Compound 98] (HELM PEPTIDE1{[ac].S.[CNCCCC[C@H](N[*:1])C(=O)[*:2]].L.[am]}$$$$V2.0) | 9.30 to 10.00
* CNC(=O)[C@H](CC(C)C)NC(=O)[C@H](CCCCN)NC(=O)[C@H](CO)NC(C)=O [Compound 13] (HELM PEPTIDE1{[ac].S.K.L.[CN[*:1]]}$$$$V2.0) | 10.00 to 10.30

* * *

- protocolDescription: Plasma pharmacokinetics after single intravenous and oral administration
- Assay type: in vivo, male Swiss Albino mice
- recordedConditions: male, Swiss Albino, mouse, oral 3 mg/kg vs i.v. 1 mg/kg
Residues, ends and D or L forms follow the SMILES beside them.
propertyName: bioavailability (%)

- CC(=O)N[C@@H](CO)C(=O)N[C@@H](CCCCN)C(=O)N[C@@H](CC(C)C)C(N)=O [Compound 1] (Ac-Ser-Lys-Leu-NH2): 24

* * *

- targetOrTestSystem: Recombinant latent TGF-beta incubated with TSP1 (Homo sapiens)
- protocolDescription: TSP1 activation of recombinant latent TGF-beta, ELISA specific for active TGF-beta
- recordedConditions: latent TGF-beta 500 pM, TSP1 48 nM, compounds 1-100 pM; read-out: Activity (IC 50)
Residues, ends and D or L forms follow the SMILES beside them.
propertyName: IC50

• CC(=O)N[C@@H](CO)C(=O)N[C@@H](CCCCN)C(=O)N[C@@H](CC(C)C)C(=O)N(C)C [Compound 97] (HELM PEPTIDE1{[ac].S.K.L.[CN(C)[*:1]]}$$$$V2.0) = 0.1 to 0.5 nM
• CCC(=O)N[C@@H](CO)C(=O)N[C@@H](CCCCN)C(=O)N[C@@H](CC(C)C)C(N)=O [Compound 101] (HELM PEPTIDE1{[CCC(=O)[*:2]].S.K.L.[am]}$$$$V2.0) = 0.1 to 0.5 nM
• CC(=O)N[C@@H](CO)C(=O)N[C@H](CCCCN)C(=O)N[C@@H](CC(C)C)C(N)=O [Compound 95] (HELM PEPTIDE1{[ac].S.[dK].L.[am]}$$$$V2.0) = 0.001 to 0.01 nM
• CC(=O)NCCCC[C@H](NC(=O)[C@H](CO)NC(C)=O)C(=O)N[C@@H](CC(C)C)C(N)=O [Compound 99] (Ac-Ser-Lys(Ac)-Leu-NH2) = 0.1 to 0.5 nM
• CNC(=O)[C@H](CC(C)C)NC(=O)[C@@H](CCCCN)NC(=O)[C@@H](NC(C)=O)C(C)O (some centres unmarked) [Compound 14] (HELM PEPTIDE1{[ac].[CC(O)[C@H](N[*:1])C(=O)[*:2]].[dK].L.[CN[*:1]]}$$$$V2.0) = 0.001 to 0.01 nM
